test: Toxicokinetics (blood), 14-day inhalation study in Sprague Dawley rats; type: in vivo, rat; settings: female, Sprague-Dawley, rat, blood, inhaled or intranasal, 10.8 mg/kg/day, from start of inhalation dosing; SD rat blood, 10.8 mg/kg/day, Day 1, Female
MEASURED_ENDPOINT: Tmax
Write your answer as a measured quantity: the number, then the unit.

The recorded Tmax for entry CCn1c(C(C)(C)Oc2ccc(F)cc2F)nc2cc(NC(=O)Cc3ccc(S(=O)(=O)CC)cc3)ccc21 equals 3 h

====

assay: Drug concentrations on day-8 in CS-model mice after 7-day intranasal treatment; type: in vivo; settings: C57BL/6, mouse, lung/plasma, other: intranasal; CS-model mice, 7-day intranasal treatment, all tested doses (1 to 100 µg); read-out: concentration in lung as compared to the plasma
MEASURED_ENDPOINT: Kp at 1 h

The recorded Kp at 1 h for entry CCn1c(C(C)(C)Oc2ccc(F)cc2F)nc2cc(NC(=O)Cc3ccc(S(=O)(=O)CC)cc3)ccc21 equals > 1000

====

experiment: Toxicokinetics (blood), 14-day inhalation study in Sprague Dawley rats; format: in vivo, rat; details: both sexes, Sprague-Dawley, rat, blood, inhaled or intranasal, 3.4 mg/kg/day, from start of inhalation dosing; SD rat blood, 3.4 mg/kg/day, Day 1, Mean
MEASURED_ENDPOINT: Tmax (h)
Field format: number, assumed h, no unit text.

The recorded Tmax for entry CCn1c(C(C)(C)Oc2ccc(F)cc2F)nc2cc(NC(=O)Cc3ccc(S(=O)(=O)CC)cc3)ccc21 equals 3

====

experiment: Drug concentrations on day-8 in CS-model mice after 7-day intranasal treatment; format: in vivo; conditions: C57BL/6, mouse, lung, other: intranasal; CS exposed mice, day-8, intranasal 30 µg/animal; read-out: Total concentration Lung
MEASURED_ENDPOINT: concentration at 1 h (µM)
Field format: number, assumed µM, no unit text.

The recorded concentration at 1 h for entry CCn1c(C(C)(C)Oc2ccc(F)cc2F)nc2cc(NC(=O)Cc3ccc(S(=O)(=O)CC)cc3)ccc21 equals 171

====

system: IL-22 release in human PBMC; assay: IL-22 release, human PBMC under Th17 polarization conditions; assay type: cell-based; conditions: human PBMC under Th17 polarization condition, n = 2; read-out: hIL-22 IC50
MEASURED_ENDPOINT: pIC50
Just the number, please; pIC50 means minus log10 of the concentration in mol/L.

The recorded pIC50 for entry CCn1c(C(C)(C)Oc2ccc(F)cc2F)nc2cc(NC(=O)Cc3ccc(S(=O)(=O)CC)cc3)ccc21 equals 7.36

====

test: Toxicokinetics (blood), 14-day inhalation study in Sprague Dawley rats; format: in vivo, rat; conditions: both sexes, Sprague-Dawley, rat, in vivo, inhaled or intranasal, 32.1 mg/kg/day, SD rat blood, inhalation, 32.1 mg/kg/day, Day 1, Mean; read-out: Cmax, mean (SE)
MEASURED_ENDPOINT: Cmax (ng/mL)
Field format: number, assumed ng/mL, no unit text.

The recorded Cmax for entry CCn1c(C(C)(C)Oc2ccc(F)cc2F)nc2cc(NC(=O)Cc3ccc(S(=O)(=O)CC)cc3)ccc21 [PCCR-1] equals 735

====

molecular target: mouse RORγ LBD (Mus musculus)
Sequence (P51450 264-516): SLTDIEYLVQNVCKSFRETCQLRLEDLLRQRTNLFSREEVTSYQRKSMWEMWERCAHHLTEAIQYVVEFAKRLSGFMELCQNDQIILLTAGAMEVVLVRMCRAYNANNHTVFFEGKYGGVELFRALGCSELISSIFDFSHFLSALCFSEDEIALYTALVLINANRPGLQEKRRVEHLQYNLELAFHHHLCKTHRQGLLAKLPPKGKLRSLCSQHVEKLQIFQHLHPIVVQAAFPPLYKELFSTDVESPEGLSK
MEASURED_ENDPOINT: pIC50
Just the number, please; pIC50 means minus log10 of the concentration in mol/L.

The recorded pIC50 for entry CCn1c(C(C)(C)Oc2ccc(F)cc2F)nc2cc(NC(=O)Cc3ccc(S(=O)(=O)CC)cc3)ccc21 equals 6.11
